assayedTarget: Tyrosine-protein kinase Fyn (Homo sapiens, UniProt P06241, T342G)
Sequence (P06241 2-537 T342G limits assumed): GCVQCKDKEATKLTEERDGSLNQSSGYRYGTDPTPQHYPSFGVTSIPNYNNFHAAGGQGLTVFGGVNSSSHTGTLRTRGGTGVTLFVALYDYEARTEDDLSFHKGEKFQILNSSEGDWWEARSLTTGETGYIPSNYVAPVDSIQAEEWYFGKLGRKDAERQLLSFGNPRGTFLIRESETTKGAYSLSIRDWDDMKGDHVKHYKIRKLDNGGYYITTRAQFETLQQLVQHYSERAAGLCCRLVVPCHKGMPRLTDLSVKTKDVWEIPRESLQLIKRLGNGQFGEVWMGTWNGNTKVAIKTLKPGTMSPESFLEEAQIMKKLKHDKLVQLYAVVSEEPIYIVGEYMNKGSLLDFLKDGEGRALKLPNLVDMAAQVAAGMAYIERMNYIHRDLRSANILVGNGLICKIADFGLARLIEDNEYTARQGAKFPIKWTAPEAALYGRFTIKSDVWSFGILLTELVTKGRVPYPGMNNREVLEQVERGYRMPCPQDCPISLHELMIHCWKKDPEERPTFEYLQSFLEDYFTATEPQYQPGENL
testMethodNotes: Inhibition of Fyn T342G mutant expressed in Escherichia coli C43 by radioactive phosphotransfer assay
resultType: pIC50
Numbers only, as −log10 of the molar value.

[
  {
    "smiles": "CCC(=O)Nc1ccc2ncnc(Nc3ccc(C(C)(C)C)cc3)c2c1",
    "pIC50": 5.82
  },
  {
    "smiles": "C=CC(=O)Nc1ccc2ncnc(Nc3ccc4ccccc4c3)c2c1",
    "pIC50": 5.74
  },
  {
    "smiles": "C=CC(=O)Nc1ccc2ncnc(Nc3cccc(Br)c3)c2c1",
    "pIC50": 6.38
  },
  {
    "smiles": "C=CC(=O)Nc1ccc2ncnc(NCCc3ccccc3)c2c1",
    "pIC50": 5.42
  },
  {
    "smiles": "C=CC(=O)Nc1ccc2ncnc(Nc3ccc(-c4ccccc4)cc3)c2c1",
    "pIC50": 5.01
  }
]

Query: Entry C=CC(=O)Nc1ccc2ncnc(Nc3cccc4ccccc34)c2c1 has what pIC50?
Reply: 5.68

====

Can you tell me IC50 for the items I'm about to list?
assayedTarget: Tyrosine-protein kinase Fyn (Homo sapiens, UniProt P06241, S349C/T342G)
Sequence (P06241 2-537 T342G/S349C limits assumed): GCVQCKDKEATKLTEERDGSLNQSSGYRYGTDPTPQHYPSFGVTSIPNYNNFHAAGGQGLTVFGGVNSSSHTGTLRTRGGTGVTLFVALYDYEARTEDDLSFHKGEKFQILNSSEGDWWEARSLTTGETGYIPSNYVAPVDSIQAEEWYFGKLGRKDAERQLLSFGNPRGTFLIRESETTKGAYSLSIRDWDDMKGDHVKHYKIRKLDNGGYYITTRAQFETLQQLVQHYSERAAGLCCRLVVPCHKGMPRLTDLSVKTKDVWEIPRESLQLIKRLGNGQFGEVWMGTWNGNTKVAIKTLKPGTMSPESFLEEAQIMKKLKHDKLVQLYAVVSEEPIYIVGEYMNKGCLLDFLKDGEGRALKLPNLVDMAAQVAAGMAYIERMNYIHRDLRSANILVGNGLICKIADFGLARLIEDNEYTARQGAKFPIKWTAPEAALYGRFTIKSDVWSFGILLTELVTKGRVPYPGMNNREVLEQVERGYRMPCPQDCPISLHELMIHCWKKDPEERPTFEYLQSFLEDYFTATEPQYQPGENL
testMethodNotes: Inhibition of Fyn T342G/S349C double mutant expressed in Escherichia coli C43 by radioactive phosphotransfer assay
Numbers only, in nM.

Example compounds with recorded IC50:
[
  {
    "smiles": "C=CC(=O)Nc1ccc2ncnc(NCCc3ccccc3)c2c1",
    "measurementUnits": "nM",
    "IC50": 88
  },
  {
    "smiles": "C=CC(=O)Nc1ccc2ncnc(Nc3cccc4ccccc34)c2c1",
    "measurementUnits": "nM",
    "IC50": 30
  },
  {
    "smiles": "C=CC(=O)Nc1ccc2ncnc(NCc3cccc4ccccc34)c2c1",
    "measurementUnits": "nM",
    "IC50": 150
  },
  {
    "smiles": "C=CC(=O)Nc1ccc2ncnc(Nc3cccc(Br)c3)c2c1",
    "measurementUnits": "nM",
    "IC50": 1
  }
]

Turning now to a further record.
Query: Entry C=CC(=O)Nc1ccc2ncnc(Nc3ccc(-c4ccccc4)cc3)c2c1 has what IC50?
Reply: 107

====

assayedTarget: Tyrosine-protein kinase Fyn (Homo sapiens, UniProt P06241, S349C)
Sequence (P06241 2-537 S349C limits assumed): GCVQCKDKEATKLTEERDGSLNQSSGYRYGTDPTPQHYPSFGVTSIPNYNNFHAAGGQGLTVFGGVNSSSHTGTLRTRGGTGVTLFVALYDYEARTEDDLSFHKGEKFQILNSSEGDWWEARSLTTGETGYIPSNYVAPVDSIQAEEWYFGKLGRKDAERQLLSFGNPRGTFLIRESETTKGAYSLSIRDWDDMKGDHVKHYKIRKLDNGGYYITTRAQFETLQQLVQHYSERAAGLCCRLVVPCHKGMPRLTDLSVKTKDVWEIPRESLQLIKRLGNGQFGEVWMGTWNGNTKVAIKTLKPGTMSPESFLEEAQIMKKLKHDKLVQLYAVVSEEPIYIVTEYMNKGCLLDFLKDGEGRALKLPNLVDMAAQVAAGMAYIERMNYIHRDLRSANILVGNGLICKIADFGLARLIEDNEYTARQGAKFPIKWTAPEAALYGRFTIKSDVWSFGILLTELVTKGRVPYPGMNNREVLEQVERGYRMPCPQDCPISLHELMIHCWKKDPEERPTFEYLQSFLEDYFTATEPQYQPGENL
testMethodNotes: Inhibition of Fyn S349C mutant in expressed in Escherichia coli C43 by radioactive phosphotransfer assay
pIC50: −log10 of the molar value.
# cutoff 6 applies to pIC50; >= gives true, < gives false

[
  {
    "smiles": "C=CC(=O)Nc1ccc2ncnc(Nc3ccc(Br)cc3)c2c1",
    "discreteLabel": "true"
  },
  {
    "smiles": "C=CC(=O)Nc1ccc2ncnc(Nc3ccccc3)c2c1",
    "discreteLabel": "true"
  }
]

Query: Quick check: does C=CC(=O)Nc1ccc2ncnc(Nc3ccc(C(C)C)cc3)c2c1 have pIC50 greater than or equal to 6?
Reply: true

Query: Same question, C=CC(=O)Nc1ccc2ncnc(Nc3cccc(Br)c3)c2c1 this time
Reply: true

Query: Same question, C=CC(=O)Nc1ccc2ncnc(Nc3ccc(C(C)(C)C)cc3)c2c1 this time
Reply: false

====

As an illustration, consider measured IC50 for molecules on Proto-oncogene tyrosine-protein kinase Src (Gallus gallus) (UniProt P00523).

Example molecules with recorded IC50:
[
  {
    "smiles": "C=CC(=O)Nc1ccc2ncnc(Nc3ccc(C(C)(C)C)cc3)c2c1",
    "result": "> 27 µM"
  },
  {
    "smiles": "C=CC(=O)Nc1ccc2ncnc(NCCc3ccccc3)c2c1",
    "result": "> 27 µM"
  },
  {
    "smiles": "C=CC(=O)Nc1ccc2ncnc(Nc3ccc(Br)cc3)c2c1",
    "result": "> 27 µM"
  }
]

Turning now to a further record.
Query: Entry C=CC(=O)Nc1ccc2ncnc(Nc3cccc4ccccc34)c2c1 has what IC50?
Reply: 16.3 µM

====

assayedTarget: Tyrosine-protein kinase Fyn (Homo sapiens, UniProt P06241, T342G)
testMethodNotes: Inhibition of Fyn T342G mutant expressed in Escherichia coli C43 by radioactive phosphotransfer assay
Can you tell me pIC50 for the items I'm about to list?
Give bare numbers, as −log10 of the molar value.

Example compounds with recorded pIC50:
[
  {
    "smiles": "C=CC(=O)Nc1ccc2ncnc(Nc3ccc(C(C)(C)C)cc3)c2c1",
    "assayedTarget": "Tyrosine-protein kinase Fyn (Homo sapiens, UniProt P06241, T342G)",
    "result": 6.05
  },
  {
    "smiles": "C=CC(=O)Nc1ccc2ncnc(Nc3ccc(C(C)C)cc3)c2c1",
    "assayedTarget": "Tyrosine-protein kinase Fyn (Homo sapiens, UniProt P06241, T342G)",
    "result": 5.66
  },
  {
    "smiles": "C=CC(=O)Nc1ccc2ncnc(NCc3cccc4ccccc34)c2c1",
    "assayedTarget": "Tyrosine-protein kinase Fyn (Homo sapiens, UniProt P06241, T342G)",
    "result": 5.82
  },
  {
    "smiles": "C=CC(=O)Nc1ccc2ncnc(Nc3ccc(Br)cc3)c2c1",
    "assayedTarget": "Tyrosine-protein kinase Fyn (Homo sapiens, UniProt P06241, T342G)",
    "result": 5.33
  }
]

Turning now to a further record.
Query: Request body: readout pIC50, system Tyrosine-protein kinase Fyn (Homo sapiens, UniProt P06241, T342G), query C=CC(=O)Nc1ccc2ncnc(Nc3ccccc3)c2c1 . Return the value.
Reply: 5.96

====

Can you tell me IC50 for the items I'm about to list?
assayedTarget: Tyrosine-protein kinase Fyn (Homo sapiens, UniProt P06241, S349C)
testMethodNotes: Inhibition of Fyn S349C mutant in expressed in Escherichia coli C43 by radioactive phosphotransfer assay
Give bare numbers, in nM.

Example compounds with recorded IC50:
[
  {
    "smiles": "C=CC(=O)Nc1ccc2ncnc(Nc3ccc(-c4ccccc4)cc3)c2c1",
    "result": 760
  },
  {
    "smiles": "C=CC(=O)Nc1ccc2ncnc(Nc3ccc4ccccc4c3)c2c1",
    "result": 32
  },
  {
    "smiles": "C=CC(=O)Nc1ccc2ncnc(Nc3cccc4ccccc34)c2c1",
    "result": 670
  }
]

Turning now to a further record.
Query: Entry C=CC(=O)Nc1ccc2ncnc(NCc3cccc4ccccc34)c2c1 has what IC50?
Reply: 1700

====

testMethodNotes: Inhibition of c-src T338G/S345C double mutant by radioactive phosphotransfer assay
pIC50: −log10 of the molar value.
# cutoff 8 applies to pIC50; >= gives Condition met, < gives Condition not met

[
  {
    "smiles": "C=CC(=O)Nc1ccc2ncnc(NCc3cccc4ccccc34)c2c1",
    "discreteLabel": "Condition not met"
  },
  {
    "smiles": "C=CC(=O)Nc1ccc2ncnc(Nc3ccc(C(C)(C)C)cc3)c2c1",
    "discreteLabel": "Condition met"
  },
  {
    "smiles": "C=CC(=O)Nc1ccc2ncnc(Nc3cccc(Br)c3)c2c1",
    "discreteLabel": "Condition met"
  },
  {
    "smiles": "CCC(=O)Nc1ccc2ncnc(Nc3ccc(C(C)(C)C)cc3)c2c1",
    "discreteLabel": "Condition not met"
  }
]

Query: Quick check: does C=CC(=O)Nc1ccc2ncnc(Nc3ccc(Br)cc3)c2c1 have pIC50 greater than or equal to 8?
Reply: Condition not met

Query: Same question, C=CC(=O)Nc1ccc2ncnc(Nc3cccc4ccccc34)c2c1 this time
Reply: Condition not met

Query: Same question, C=CC(=O)Nc1ccc2ncnc(Nc3ccccc3)c2c1 this time
Reply: Condition not met

Query: Same question, C=CC(=O)Nc1ccc2ncnc(NCCc3ccccc3)c2c1 this time
Reply: Condition not met

====

As an illustration, consider measured IC50 for molecules on Tyrosine-protein kinase Fyn (Homo sapiens, UniProt P06241).
Sequence (P06241 whole entry): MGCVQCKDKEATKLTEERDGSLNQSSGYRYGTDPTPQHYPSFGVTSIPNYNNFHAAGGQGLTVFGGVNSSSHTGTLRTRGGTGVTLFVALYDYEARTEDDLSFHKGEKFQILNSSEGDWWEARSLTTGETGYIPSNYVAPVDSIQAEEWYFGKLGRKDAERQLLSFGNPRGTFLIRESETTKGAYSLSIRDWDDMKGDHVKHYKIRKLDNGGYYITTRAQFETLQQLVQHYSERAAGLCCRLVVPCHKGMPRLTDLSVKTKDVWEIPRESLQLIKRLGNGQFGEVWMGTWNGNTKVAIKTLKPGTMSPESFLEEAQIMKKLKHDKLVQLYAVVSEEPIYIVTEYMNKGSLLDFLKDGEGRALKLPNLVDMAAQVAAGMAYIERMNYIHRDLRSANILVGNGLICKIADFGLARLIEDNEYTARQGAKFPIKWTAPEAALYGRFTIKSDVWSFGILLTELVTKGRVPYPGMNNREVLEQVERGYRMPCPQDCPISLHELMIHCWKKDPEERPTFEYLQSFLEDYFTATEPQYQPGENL

Example molecules with recorded IC50:
[
  {
    "smiles": "C=CC(=O)Nc1ccc2ncnc(Nc3ccc(Br)cc3)c2c1",
    "assayedTarget": "Tyrosine-protein kinase Fyn (Homo sapiens, UniProt P06241)",
    "IC50": "> 300 µM"
  },
  {
    "smiles": "C=CC(=O)Nc1ccc2ncnc(Nc3cccc(Br)c3)c2c1",
    "assayedTarget": "Tyrosine-protein kinase Fyn (Homo sapiens, UniProt P06241)",
    "IC50": "> 300 µM"
  },
  {
    "smiles": "C=CC(=O)Nc1ccc2ncnc(NCCc3ccccc3)c2c1",
    "assayedTarget": "Tyrosine-protein kinase Fyn (Homo sapiens, UniProt P06241)",
    "IC50": "40 µM"
  }
]

Query: Entry CCC(=O)Nc1ccc2ncnc(Nc3ccc(C(C)(C)C)cc3)c2c1 has what IC50?
Reply: > 300 µM

====

Can you tell me IC50 for the items I'm about to list?
assayedTarget: Tyrosine-protein kinase Fyn (Homo sapiens, UniProt P06241, S349C/T342G)
testMethodNotes: Inhibition of Fyn T342G/S349C double mutant expressed in Escherichia coli C43 by radioactive phosphotransfer assay
Answers are plain numbers, in nM.

Could you tell me IC50 for each of these compounds? They are listed below.
1. C=CC(=O)Nc1ccc2ncnc(Nc3ccccc3)c2c1
2. C=CC(=O)Nc1ccc2ncnc(Nc3ccc(C(C)C)cc3)c2c1
3. CCC(=O)Nc1ccc2ncnc(Nc3ccc(C(C)(C)C)cc3)c2c1
4. C=CC(=O)Nc1ccc2ncnc(Nc3ccc(C(C)(C)C)cc3)c2c1
5. C=CC(=O)Nc1ccc2ncnc(Nc3ccc4ccccc4c3)c2c1
6. C=CC(=O)Nc1ccc2ncnc(Nc3ccc(Br)cc3)c2c1

Reply:
6
32
540
24
3
19
